Measured log10(MFI) values are reported for all entries that follow.
STUDY_SYSTEM: CD28 (human) (UniProt P10747)
EXPERIMENT_NOTES: flow cytometry, transfected cells
MEASURE: log10(MFI) (log10 of the value in MFI)

BINDER	REPORTED_MEASUREMENT
ICOSL-Fc N52R/N57W/Q100K (Fc fusion) DTQEKEVRAMVGSDVELSCACPEGSRFDLNDVYVYWQTSESKTVVTYHIPQRSSLEWVDSRYRNRALMSPAGMLRGDFSLRLFNVTPQDEQKFHCLVLSKSLGFQEVLSVEVTLHVAANFSVPVVSAPHSPSQDELTFTCTSINGYPRPNVYWINKTDNSLLDQALQNDTVFLNMRGLYDVVSVLRIARTPSVNIGCCIENVLLQQNLTVGSQTGNDIGERDKITENPVSTGEKNAAT	5.12
ICOSL-Fc N52V/N57T/Q100L (Fc fusion) DTQEKEVRAMVGSDVELSCACPEGSRFDLNDVYVYWQTSESKTVVTYHIPQVSSLETVDSRYRNRALMSPAGMLRGDFSLRLFNVTPQDEQKFHCLVLSLSLGFQEVLSVEVTLHVAANFSVPVVSAPHSPSQDELTFTCTSINGYPRPNVYWINKTDNSLLDQALQNDTVFLNMRGLYDVVSVLRIARTPSVNIGCCIENVLLQQNLTVGSQTGNDIGERDKITENPVSTGEKNAAT	3.79
ICOSL-Fc N52P/N57S/Q100G (Fc fusion) DTQEKEVRAMVGSDVELSCACPEGSRFDLNDVYVYWQTSESKTVVTYHIPQPSSLESVDSRYRNRALMSPAGMLRGDFSLRLFNVTPQDEQKFHCLVLSGSLGFQEVLSVEVTLHVAANFSVPVVSAPHSPSQDELTFTCTSINGYPRPNVYWINKTDNSLLDQALQNDTVFLNMRGLYDVVSVLRIARTPSVNIGCCIENVLLQQNLTVGSQTGNDIGERDKITENPVSTGEKNAAT	3.83
ICOSL ECD-Fc N84Q (Fc fusion) DTQEKEVRAMVGSDVELSCACPEGSRFDLNDVYVYWQTSESKTVVTYHIPQNSSLENVDSRYRNRALMSPAGMLRGDFSLRLFQVTPQDEQKFHCLVLSQSLGFQEVLSVEVTLHVAANFSVPVVSAPHSPSQDELTFTCTSINGYPRPNVYWINKTDNSLLDQALQNDTVFLNMRGLYDVVSVLRIARTPSVNIGCCIENVLLQQNLTVGSQTGNDIGERDKITENPVSTGEKNAAT	3.25
ICOSL-Fc N52M/N57H/Q100S (Fc fusion) DTQEKEVRAMVGSDVELSCACPEGSRFDLNDVYVYWQTSESKTVVTYHIPQMSSLEHVDSRYRNRALMSPAGMLRGDFSLRLFNVTPQDEQKFHCLVLSSSLGFQEVLSVEVTLHVAANFSVPVVSAPHSPSQDELTFTCTSINGYPRPNVYWINKTDNSLLDQALQNDTVFLNMRGLYDVVSVLRIARTPSVNIGCCIENVLLQQNLTVGSQTGNDIGERDKITENPVSTGEKNAAT	5.06
ICOSL-Fc N52A/N57H/Q100S (Fc fusion) DTQEKEVRAMVGSDVELSCACPEGSRFDLNDVYVYWQTSESKTVVTYHIPQASSLEHVDSRYRNRALMSPAGMLRGDFSLRLFNVTPQDEQKFHCLVLSSSLGFQEVLSVEVTLHVAANFSVPVVSAPHSPSQDELTFTCTSINGYPRPNVYWINKTDNSLLDQALQNDTVFLNMRGLYDVVSVLRIARTPSVNIGCCIENVLLQQNLTVGSQTGNDIGERDKITENPVSTGEKNAAT	5.20
ICOSL-Fc N52K/N57Y/Q100R (Fc fusion) DTQEKEVRAMVGSDVELSCACPEGSRFDLNDVYVYWQTSESKTVVTYHIPQKSSLEYVDSRYRNRALMSPAGMLRGDFSLRLFNVTPQDEQKFHCLVLSRSLGFQEVLSVEVTLHVAANFSVPVVSAPHSPSQDELTFTCTSINGYPRPNVYWINKTDNSLLDQALQNDTVFLNMRGLYDVVSVLRIARTPSVNIGCCIENVLLQQNLTVGSQTGNDIGERDKITENPVSTGEKNAAT	5.15
ICOSL ECD-Fc N84Q/N119Q/N207Q (Fc fusion) DTQEKEVRAMVGSDVELSCACPEGSRFDLNDVYVYWQTSESKTVVTYHIPQNSSLENVDSRYRNRALMSPAGMLRGDFSLRLFQVTPQDEQKFHCLVLSQSLGFQEVLSVEVTLHVAAQFSVPVVSAPHSPSQDELTFTCTSINGYPRPNVYWINKTDNSLLDQALQNDTVFLNMRGLYDVVSVLRIARTPSVNIGCCIENVLLQQQLTVGSQTGNDIGERDKITENPVSTGEKNAAT	2.76
ICOSL-Fc N52A/N57F/Q100S (Fc fusion) DTQEKEVRAMVGSDVELSCACPEGSRFDLNDVYVYWQTSESKTVVTYHIPQASSLEFVDSRYRNRALMSPAGMLRGDFSLRLFNVTPQDEQKFHCLVLSSSLGFQEVLSVEVTLHVAANFSVPVVSAPHSPSQDELTFTCTSINGYPRPNVYWINKTDNSLLDQALQNDTVFLNMRGLYDVVSVLRIARTPSVNIGCCIENVLLQQNLTVGSQTGNDIGERDKITENPVSTGEKNAAT	5.20
ICOSL ECD-Fc N84Q/N119Q (Fc fusion) DTQEKEVRAMVGSDVELSCACPEGSRFDLNDVYVYWQTSESKTVVTYHIPQNSSLENVDSRYRNRALMSPAGMLRGDFSLRLFQVTPQDEQKFHCLVLSQSLGFQEVLSVEVTLHVAAQFSVPVVSAPHSPSQDELTFTCTSINGYPRPNVYWINKTDNSLLDQALQNDTVFLNMRGLYDVVSVLRIARTPSVNIGCCIENVLLQQNLTVGSQTGNDIGERDKITENPVSTGEKNAAT	3.17
